Sourced from patent US20230303690A1

- Target entity: T1, LAG3 Protein, Human, Recombinant (His Tag) (Sino Biological Catalog No. 16498-H08H) (human, UniProt P18627 23-450)
- T1 construct: Bought protein; also called hLAG3-His; LAG3-His; not shown: His tag
- T1 sequence (looked up): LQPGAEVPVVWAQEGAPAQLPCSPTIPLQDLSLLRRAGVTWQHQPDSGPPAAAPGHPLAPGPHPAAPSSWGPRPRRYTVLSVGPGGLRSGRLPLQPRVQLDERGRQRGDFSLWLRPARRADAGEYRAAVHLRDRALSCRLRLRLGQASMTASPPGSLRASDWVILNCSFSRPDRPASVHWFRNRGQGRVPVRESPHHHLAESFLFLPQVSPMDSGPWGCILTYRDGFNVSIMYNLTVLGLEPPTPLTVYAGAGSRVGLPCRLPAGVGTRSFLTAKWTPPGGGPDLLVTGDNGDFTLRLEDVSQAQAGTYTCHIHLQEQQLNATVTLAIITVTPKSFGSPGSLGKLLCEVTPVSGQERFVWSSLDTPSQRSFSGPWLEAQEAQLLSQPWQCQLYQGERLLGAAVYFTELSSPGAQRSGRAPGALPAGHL
- Measurement description: SPR (Biacore), sdAb captured by anti-human Fc, LAG3-His analyte
Measured parameter: kon
Answer by giving the amount and then stating its unit.

- Binder: "sdAb No. 8 (VHH, Fc of the tested form not described; not shown: Fc part implied by anti-human Fc capture) VHH: QLQLVESGGGLVQPGGSLRLSCAASGFTLDYYAIGWFRQAPGKEREGVSCISSSDGSTYYADSVKGRFTISRDNAKNTVYLQMNSLKPEDTAIYYCARDSLSGSGYGCRGPYDYWGQGTQVTVSS"
  kon: "797000 M⁻¹ s⁻¹"

Let's switch to this binder now.
Quick check: kon of sdAb No. 20 (VHH, Fc of the tested form not described; also called sdAb 20; not shown: Fc part implied by anti-human Fc capture) VHH: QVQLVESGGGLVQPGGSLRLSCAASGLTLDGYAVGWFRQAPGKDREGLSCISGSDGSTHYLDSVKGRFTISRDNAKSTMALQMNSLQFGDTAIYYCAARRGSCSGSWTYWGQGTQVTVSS ?
1.71e+06 M⁻¹ s⁻¹
